SYSTEM UNDER TEST: hemagglutinin (HA) of influenza virus H3N2 A/Wisconsin/67/05 (influenza A virus)
ASSAY PROCEDURE: cell-based or functional assay
Consider the following binders; for each one, report its average neutralization titer.
Report only the number, with the unit nM understood.

Incoming: Tell me measured average neutralization titer for MD2302 (bispecific antibody) EVQLVESGGGLVQPGGSLRLSCAVSISIFDIYAMDWYRQAPGKQRDLVATSFRDGSTNYADSVKGRFTISRDNAKNTLYLQMNSLKPEDTAVYLCHVSLYRDPLGVAGGMGVYWGKGALVTVSSGGGGSGGGGSEVQLVESGGGLVQPGGSLRLSCAATGFTLENKAIGWFRQTPGSEREGVLCISKSGSWTYYTDSMRGRFTISRDNAENTVYLQMDSLKPEDTAVYYCATTTAGGGLCWDGTTFSRLASSWGQGTQVTVSSGGGGSGGGGSEVQLVESGGGLVQAGGSLKLSCAASGRTYAMGWFRQAPGKEREFVAHINALGTRTYYSDSVKGRFTISRDNAKNTEYLEMNNLKPEDTAVYYCTAQGQWRAAPVAVAAEYEFWGQGTQVTVSS please.
Outgoing: 34.7

Incoming: Tell me measured average neutralization titer for MD2303 (bispecific antibody) EVQLVESGGGLVQPGGSLRLSCAVSISIFDIYAMDWYRQAPGKQRDLVATSFRDGSTNYADSVKGRFTISRDNAKNTLYLQMNSLKPEDTAVYLCHVSLYRDPLGVAGGMGVYWGKGALVTVSSGGGGSGGGGSEVQLVESGGGLVQAGGSLKLSCAASGRTYAMGWFRQAPGKEREFVAHINALGTRTYYSDSVKGRFTISRDNAKNTEYLEMNNLKPEDTAVYYCTAQGQWRAAPVAVAAEYEFWGQGTQVTVSSGGGGSGGGGSEVQLVESGGGLVQPGGSLRLSCAATGFTLENKAIGWFRQTPGSEREGVLCISKSGSWTYYTDSMRGRFTISRDNAENTVYLQMDSLKPEDTAVYYCATTTAGGGLCWDGTTFSRLASSWGQGTQVTVSS please.
Outgoing: 15

Incoming: Tell me measured average neutralization titer for MD2301 (bispecific antibody) EVQLVESGGGLVQPGGSLRLSCAATGFTLENKAIGWFRQTPGSEREGVLCISKSGSWTYYTDSMRGRFTISRDNAENTVYLQMDSLKPEDTAVYYCATTTAGGGLCWDGTTFSRLASSWGQGTQVTVSSGGGGSGGGGSEVQLVESGGGLVQPGGSLRLSCAVSISIFDIYAMDWYRQAPGKQRDLVATSFRDGSTNYADSVKGRFTISRDNAKNTLYLQMNSLKPEDTAVYLCHVSLYRDPLGVAGGMGVYWGKGALVTVSSGGGGSGGGGSEVQLVESGGGLVQAGGSLKLSCAASGRTYAMGWFRQAPGKEREFVAHINALGTRTYYSDSVKGRFTISRDNAKNTEYLEMNNLKPEDTAVYYCTAQGQWRAAPVAVAAEYEFWGQGTQVTVSS please.
Outgoing: 34.7
